subject of test: Serine/threonine-protein kinase PAK 5 (Homo sapiens, UniProt Q9P286)
Sequence (Q9P286 whole entry): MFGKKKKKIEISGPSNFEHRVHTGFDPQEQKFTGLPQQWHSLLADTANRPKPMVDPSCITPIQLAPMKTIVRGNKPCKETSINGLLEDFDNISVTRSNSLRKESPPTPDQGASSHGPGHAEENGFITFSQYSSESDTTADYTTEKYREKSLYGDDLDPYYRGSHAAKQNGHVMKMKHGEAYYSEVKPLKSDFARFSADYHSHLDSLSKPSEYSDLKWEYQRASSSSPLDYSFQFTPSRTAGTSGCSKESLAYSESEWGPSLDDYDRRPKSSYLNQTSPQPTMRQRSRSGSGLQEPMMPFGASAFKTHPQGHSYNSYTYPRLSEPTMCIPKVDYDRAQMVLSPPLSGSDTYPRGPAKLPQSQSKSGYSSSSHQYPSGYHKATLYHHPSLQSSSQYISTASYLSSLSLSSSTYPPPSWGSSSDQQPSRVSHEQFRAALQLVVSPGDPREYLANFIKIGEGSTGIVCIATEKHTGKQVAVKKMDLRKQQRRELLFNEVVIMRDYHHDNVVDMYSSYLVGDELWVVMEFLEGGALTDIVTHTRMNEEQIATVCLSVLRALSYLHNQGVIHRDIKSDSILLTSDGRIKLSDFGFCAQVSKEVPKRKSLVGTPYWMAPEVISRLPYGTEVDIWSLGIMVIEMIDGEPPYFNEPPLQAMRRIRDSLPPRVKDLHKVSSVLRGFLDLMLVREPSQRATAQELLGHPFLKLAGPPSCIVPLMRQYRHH
experimental details: Inhibition of recombinant human PAK5 (425 to end residues) using RRRLSFAEPG as substrate measured after 40 mins in presence of [gamma33P]ATP by radiometric scintillation counting analysis
pIC50: −log10 of the molar value.

- smiles record: "CN(C)c1ccc(C(=O)Nc2cccc(NC(=O)COc3ccc4c(=O)ccoc4c3)c2)cc1"
  pIC50: "< 5.00"

----------
subject of test: Ribosomal protein S6 kinase alpha-2 (Homo sapiens)
Sequence (Q15349 whole entry): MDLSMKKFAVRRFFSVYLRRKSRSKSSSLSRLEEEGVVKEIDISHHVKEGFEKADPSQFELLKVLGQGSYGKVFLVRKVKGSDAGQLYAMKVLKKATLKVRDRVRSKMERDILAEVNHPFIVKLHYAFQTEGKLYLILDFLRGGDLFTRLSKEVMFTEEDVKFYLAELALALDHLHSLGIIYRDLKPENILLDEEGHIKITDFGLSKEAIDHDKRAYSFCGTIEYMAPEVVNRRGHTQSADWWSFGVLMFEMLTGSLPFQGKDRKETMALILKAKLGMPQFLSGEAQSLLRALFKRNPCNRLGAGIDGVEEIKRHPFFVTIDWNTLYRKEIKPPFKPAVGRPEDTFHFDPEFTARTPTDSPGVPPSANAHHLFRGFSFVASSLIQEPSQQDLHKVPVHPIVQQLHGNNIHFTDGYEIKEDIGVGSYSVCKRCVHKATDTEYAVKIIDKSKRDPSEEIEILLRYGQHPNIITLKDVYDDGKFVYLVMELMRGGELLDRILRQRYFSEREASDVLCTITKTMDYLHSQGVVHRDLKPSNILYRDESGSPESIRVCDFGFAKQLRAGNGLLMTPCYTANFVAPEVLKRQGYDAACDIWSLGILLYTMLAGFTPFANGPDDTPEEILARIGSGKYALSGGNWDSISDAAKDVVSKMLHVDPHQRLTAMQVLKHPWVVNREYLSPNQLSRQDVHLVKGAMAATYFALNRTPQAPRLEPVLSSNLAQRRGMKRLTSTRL
experimental details: Inhibition of recombinant full length human Rsk3 using KKKNRTLSVA as substrate incubated for 40 mins in presence of [gamma33P]ATP by radiometric scintillation counting analysis

- smiles record: "CN(C)c1ccc(C(=O)Nc2cccc(NC(=O)COc3ccc4c(=O)ccoc4c3)c2)cc1"
  subject of test: "Ribosomal protein S6 kinase alpha-2 (Homo sapiens)"
  IC50: "> 10 µM"

These measurements were taken from ChEMBL document CHEMBL4376834.
